The origin of these recorded values is ChEMBL document CHEMBL1131343.

# tested_system: Human immunodeficiency virus type 1 protease (Human immunodeficiency virus 1, UniProt Q72874)
# assay: Binding affinity for HIV-1 protease enzyme was measured by using fluorescent peptide substrate
pKi: −log10 of the molar value.
Classification field. Basis: pKi. Definitions: band A = under 7, band B = from 7 up to 8, band C = 8 and over

>>> df
                                      smiles  class_label
 0  NC(=O)NC1=N[C@H](Cc2ccccc2)[C@H](O)[C@@H](O)[C@@H](Cc2ccccc2)N1       band A
 1  N#Cc1ccc(CN2C(=O)N(Cc3ccc(C#N)cc3)[C@H](Cc3ccccc3)[C@H](O)[C@@H](O)[C@H]2Cc2ccccc2)cc1       band B
 2  Nc1cccc(CN2C(=O)N(Cc3cccc(N)c3)[C@H](Cc3ccccc3)[C@H](O)[C@@H](O)[C@H]2Cc2ccccc2)c1       band C
 3  O=C1N(Cc2ccc([N+](=O)[O-])cc2)[C@H](Cc2ccccc2)[C@H](O)[C@@H](O)[C@@H](Cc2ccccc2)N1Cc1ccc([N+](=O)[O-])cc1       band B
 4  N#CN=C1N(Cc2ccc(N)cc2)[C@H](Cc2ccccc2)[C@H](O)[C@@H](O)[C@@H](Cc2ccccc2)N1Cc1ccc(N)cc1       band B
 5  N#CN=C1N(Cc2ccccc2)[C@H](Cc2ccccc2)[C@H](O)[C@@H](O)[C@@H](Cc2ccccc2)N1Cc1ccccc1       band B
 6  O=C1N(Cc2ccc3ccccc3c2)[C@H](Cc2ccccc2)[C@H](O)[C@@H](O)[C@@H](Cc2ccccc2)N1Cc1ccc2ccccc2c1       band C
 7  C=CCN1C(=NC#N)N(CC=C)[C@H](Cc2ccccc2)[C@H](O)[C@@H](O)[C@H]1Cc1ccccc1       band B
 8  CCCCN1C(=NC#N)N(CCCC)[C@H](Cc2ccccc2)[C@H](O)[C@@H](O)[C@H]1Cc1ccccc1       band C
 9  O=C1N(Cc2ccc(OCc3ccccc3)cc2)[C@H](Cc2ccccc2)[C@H](O)[C@@H](O)[C@@H](Cc2ccccc2)N1Cc1ccc(OCc2ccccc2)cc1       band A
10  CC(C)CCN1C(=NC#N)N(CCC(C)C)[C@H](Cc2ccccc2)[C@H](O)[C@@H](O)[C@H]1Cc1ccccc1       band C
11  N#CN=C1N(Cc2cccc(CO)c2)[C@H](Cc2ccccc2)[C@H](O)[C@@H](O)[C@@H](Cc2ccccc2)N1Cc1cccc(CO)c1       band C
12  N#CN=C1N(Cc2cccc(C#N)c2)[C@H](Cc2ccccc2)[C@H](O)[C@@H](O)[C@@H](Cc2ccccc2)N1Cc1cccc(C#N)c1       band B
13  CC(C)=CCN1C(=NC#N)N(CC=C(C)C)[C@H](Cc2ccccc2)[C@H](O)[C@@H](O)[C@H]1Cc1ccccc1       band B
14  N#CN=C1N(Cc2ccc(OCc3ccccc3)cc2)[C@H](Cc2ccccc2)[C@H](O)[C@@H](O)[C@@H](Cc2ccccc2)N1Cc1ccc(OCc2ccccc2)cc1       band A
15  N#CN=C1N(CC2CC2)[C@H](Cc2ccccc2)[C@H](O)[C@@H](O)[C@@H](Cc2ccccc2)N1CC1CC1       band B
16  N#CN=C1N(Cc2cccc(O)c2)[C@H](Cc2ccccc2)[C@H](O)[C@@H](O)[C@@H](Cc2ccccc2)N1Cc1cccc(O)c1       band C
17  N#CN=C1N(Cc2cccc(OCc3ccccc3)c2)[C@H](Cc2ccccc2)[C@H](O)[C@@H](O)[C@@H](Cc2ccccc2)N1Cc1cccc(OCc2ccccc2)c1       band A
18  O=C1N[C@H](Cc2ccccc2)[C@H](O)[C@@H](O)[C@@H](Cc2ccccc2)N1       band A
